# ASSAY_SUMMARY: Drug absorption experiment in SD rats, intravenous administration
# Format: in vivo, SD rats (Sprague Dawley rats)
# COND: both sexes, Sprague-Dawley, rat, plasma, iv, 2.5 mg/kg, dosage 2.5 mg/kg, plasma, read-out: AUC0-t
OUTCOME_MEASURE: AUC(0-t) (ng·h/mL)

- C=CC(=O)Nc1cc(Nc2nccc(-c3cn(C)c4ccccc34)n2)c(OCC(F)(F)F)nc1N(C)CCN(C)C [Form I]: 308

---

# ASSAY_SUMMARY: Drug absorption experiment in SD rats, intragastric administration (incl. absolute bioavailability)
# Assay type: in vivo, SD rats (Sprague Dawley rats)
# COND: both sexes, Sprague-Dawley, rat, plasma, po, 10 mg/kg, intragastric 10 mg/kg vs intravenous 4.0 mg/kg, from AUC0-t after dosage calibration, read-out: F (absolute bioavailability)
OUTCOME_MEASURE: bioavailability (%)

* C=CC(=O)Nc1cc(Nc2ncc(Cl)c(-c3cn(C)c4ccccc34)n2)c(OC(C)C)nc1N(C)CCN(C)C [Comparative Example 2, reference compound] | 8.5
